# credit: the supplement of paper PMC10567573

The variants listed here are annotated with their protein stability index.
B1: ADAMTSL2 (parent)
chain: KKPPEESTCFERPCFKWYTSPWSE

variants of: B1; experiment: protein stability index of a GFP-peptide fusion (GPS, HEK-293T) (PSI 1-6); higher = more stable; conditions: c terminus: a fixed tail appended;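 also: lentivirally expressed fusions sorted by FACS into six bins by GFP to DsRed ratio, PSI derived from sequencing read proportions per bin multiplied by bin number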
Please reply with the value in numeric form only.

mutationlabel=P13D numericreadout=2.39

Could you share which protein stability index value was measured for `K2P` ?
2.27

Could you share which protein stability index value was measured for `E11H` ?
2.27

Could you share which protein stability index value was measured for `E6H` ?
2.06
